molecular target: Bombyx mori EcR (VP16 fusion, CVBE switch construct) (Bombyx mori); experiment: Z3 Assay (HEK-293 cells with CVBE and 6XEcRE LacZ, β-galactosidase reporter); details: 33 uM ligand; ligand treated / DMSO treated cells; average of two wells
measured endpoint: Fold Induction, Z3 Assay, 33 uM
Output: the number by itself.

molecule	measured endpoint	recorded value
COc1ccccc1C(=O)N(NC(=O)c1ccc2c(c1C)OCOC2)C(C)(C)C	Fold Induction, Z3 Assay, 33 uM	398
CCc1c(OC)cccc1C(=O)NN(C(=O)c1cccc(F)c1F)C(C)(C)C	Fold Induction, Z3 Assay, 33 uM	362
CCc1c(OC)cccc1C(=O)NN(C(=O)c1cc(Cl)ccc1OC)C(C)(C)C	Fold Induction, Z3 Assay, 33 uM	832
Cc1cc(C(=O)N(NC(=O)c2cccc(Cl)c2C)C(C)(C)C)ccc1Br	Fold Induction, Z3 Assay, 33 uM	1
CCc1c(C(=O)NN(C(=O)c2cc(OC)c(C)c(OC)c2)C(C)(C)C)ccc2c1OCCO2	Fold Induction, Z3 Assay, 33 uM	930
CCc1c(OC)cccc1C(=O)NN(C(=O)c1cc(OC)ccc1OC)C(C)(C)C	Fold Induction, Z3 Assay, 33 uM	304
COc1cccc(C(=O)NN(C(=O)c2cc(C)ccc2[N+](=O)[O-])C(C)(C)C)c1C	Fold Induction, Z3 Assay, 33 uM	457

For the next question, use this molecule.
# Fold Induction, Z3 Assay, 33 uM (molecule: COc1cccc(C(=O)NN(C(=O)c2cc(C)cc(C)c2)C(C)(C)C)c1C[S+](C)[O-] (centres unmarked) ) is 216

----------
molecular target: Bombyx mori EcR (VP16 fusion, CVBE switch construct) (Bombyx mori, UniProt P49881); experiment: Z3 Assay (HEK-293 cells with CVBE and 6XEcRE LacZ, β-galactosidase reporter); conditions: HEK293, read-out: Fold Induction, Z3 Assay, 3.3 uM
Sequence (P49881 86-606): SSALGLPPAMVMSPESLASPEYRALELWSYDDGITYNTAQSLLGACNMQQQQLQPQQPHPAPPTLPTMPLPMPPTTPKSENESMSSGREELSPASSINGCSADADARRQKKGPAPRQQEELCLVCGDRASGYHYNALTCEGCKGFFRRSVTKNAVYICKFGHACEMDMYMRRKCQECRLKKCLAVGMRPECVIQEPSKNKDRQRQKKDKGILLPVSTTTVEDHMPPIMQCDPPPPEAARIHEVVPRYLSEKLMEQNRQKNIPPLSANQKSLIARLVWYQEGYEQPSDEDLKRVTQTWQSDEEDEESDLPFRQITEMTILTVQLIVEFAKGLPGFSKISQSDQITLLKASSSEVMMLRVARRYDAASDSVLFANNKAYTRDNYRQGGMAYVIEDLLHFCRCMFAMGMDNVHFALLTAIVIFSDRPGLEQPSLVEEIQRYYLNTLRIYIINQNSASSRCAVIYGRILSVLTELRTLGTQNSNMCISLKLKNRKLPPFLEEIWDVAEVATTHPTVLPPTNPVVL
Sequence (P19793 whole entry partner, the tested form may be a part): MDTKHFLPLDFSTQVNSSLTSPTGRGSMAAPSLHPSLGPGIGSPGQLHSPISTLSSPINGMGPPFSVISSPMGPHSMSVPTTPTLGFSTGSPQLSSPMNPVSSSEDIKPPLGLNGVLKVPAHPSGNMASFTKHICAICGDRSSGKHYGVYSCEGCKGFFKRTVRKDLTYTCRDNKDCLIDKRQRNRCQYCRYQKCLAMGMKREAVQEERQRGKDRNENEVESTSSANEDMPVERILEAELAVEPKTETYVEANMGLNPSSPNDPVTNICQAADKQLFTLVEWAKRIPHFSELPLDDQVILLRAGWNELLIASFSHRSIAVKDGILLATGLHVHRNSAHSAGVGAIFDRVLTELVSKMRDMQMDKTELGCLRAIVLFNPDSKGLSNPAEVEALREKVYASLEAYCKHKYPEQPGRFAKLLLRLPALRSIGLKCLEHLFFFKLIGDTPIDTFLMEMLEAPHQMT
Reported fold induction at 3.3 µM by item:
// return just the number, without any unit appended

compound	recorded value
CCC(N(NC(=O)c1cccc(OC)c1C)C(=O)c1cc(OC)c(C)c(OC)c1)C(C)(C)C (centres unmarked)	1410

Lab book: fold induction at 3.3 µM of COc1cc(C(=O)N(NC(=O)c2ccc3c(c2C)OCCO3)C(C)(C)C)cc(OC)c1O noted as 35

The compound listed as Cc1cc(C)cc(C(=O)N(NC(=O)c2ccc3c(c2C)OCCO3)C(C)(C)C)c1 has a reported fold induction at 3.3 µM of 416

Lab note: Cc1c(C(=O)NN(C(=O)c2cc(F)c(F)c(F)c2)C(C)(C)C)ccc2c1CCCO2 gave fold induction at 3.3 µM of 282

Lab note: COc1cccc(C(=O)NN(C(=O)c2cc(C)cc(C)c2)C(C)(C)C)c1COC(C)=O gave fold induction at 3.3 µM of 3

Record CCc1c(OC)cccc1C(=O)NN(C(=O)c1cc(C)cc(C)c1)C(C)(C)C=NO . Reported fold induction at 3.3 µM: 382

The recorded fold induction at 3.3 µM for entry COc1cc(C(=O)N(NC(=O)c2ccc3c(c2C)OCCO3)C(C)(C)C#N)cc(OC)c1C equals 351

Looking up CCc1c(OC)cccc1C(=O)NN(C(=O)c1cc(C)cc(C)c1)C(C)(C)C(=O)O , I found its fold induction at 3.3 µM recorded as 1
